# System: DNA
# METHOD NOTES: Binding affinity to calf thymus DNA assessed as change in melting temperature at 1:5 drug/DNA ratio at 37 degC after 18 hrs by spectrophotometry
# Type: nucleic-acid assay
# CONDITION LABEL: Bos taurus
This listing pairs compounds with measured ΔTm.
QUANTITY NAME: ΔTm (°C)

# STRUCTURE SMILES, TEST TARGET, QUANTITY NAME, EXPERIMENTAL VALUE
rows = [
    ("COc1cc2c(cc1OCCCCCCN1CCN(C(=O)c3nc(-c4ccccc4)n4ccccc34)CC1)N=C[C@@H]1CCCN1C2=O", "DNA", "ΔTm", 8),
    ("COc1ccc(-c2nc(C(=O)N3CCN(CCCCOc4cc5c(cc4OC)C(=O)N4CCC[C@H]4C=N5)CC3)c3ccccn23)cc1", "DNA", "ΔTm", 9.9),
    ("COc1cc2c(cc1OCCCN1CCN(C(=O)c3nc(-c4ccccc4)n4ccccc34)CC1)N=C[C@@H]1CCCN1C2=O", "DNA", "ΔTm", 8.9),
    ("O=C(c1nc(-c2ccc(C(F)(F)F)cc2)n2ccccc12)N1CCNCC1", "DNA", "ΔTm", 2.5),
]
